EC50 values, listed per item
testedTarget: T1, human DC-SIGN (full length, expressed on cells) (human, UniProt Q9NNX6 1-404)
T1 construct: Also used for DC-SIGN on human monocyte-derived cells and on cells of human DC-SIGN transgenic mice in the functional rows; also called CD209; human DC-SIGN CHO
T1 sequence: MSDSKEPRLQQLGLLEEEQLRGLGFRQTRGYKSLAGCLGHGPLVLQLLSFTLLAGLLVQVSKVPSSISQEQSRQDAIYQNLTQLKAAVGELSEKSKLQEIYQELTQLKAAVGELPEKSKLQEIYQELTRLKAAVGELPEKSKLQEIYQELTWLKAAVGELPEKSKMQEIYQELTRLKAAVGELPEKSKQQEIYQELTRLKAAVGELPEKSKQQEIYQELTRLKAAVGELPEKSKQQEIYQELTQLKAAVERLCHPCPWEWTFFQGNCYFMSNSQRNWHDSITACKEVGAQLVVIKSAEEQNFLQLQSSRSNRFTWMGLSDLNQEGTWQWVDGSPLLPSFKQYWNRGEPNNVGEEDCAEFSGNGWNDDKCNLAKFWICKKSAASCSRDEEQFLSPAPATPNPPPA
assayExplanation: flow cytometry, IgG titrated on human DC-SIGN K562 cells
The reply should be a number in µg/mL, with the unit left off.

[[record]]
binder = "914M09 Parental (antibody, human IgG1, kappa, V domains shown) VH: QVQLQESGPGLVKPSETLSLTCAVSGGSISSYYWNLIRQPAGKGLEWIGRIYTSGSTNYNPSLKSRVTMSVDTSKNQFSLKLSSVTAADTAVYYCARDSGGFYYYYGMDVWGQGTTVTVSS VL: DIQLTQSPSFLSASVGDRVTITCRASQGISSYLAWYQQKPGKAPKLLIYAASTLQGGVPSRFSGSGSGTEFTLTISSLQPEDFATYHCQQLNSYPWTFGQGTKVEIKR"
unitlabel = "µg/mL"
reportedresult = 0.25

[[record]]
binder = "550E03 Parental (antibody, V domains shown, also called 550Ee03) VH: QVTLRESGPALVKPTQTLTLTCTFSGFSLSTSGMSVSWIRQPPGKALEWLALIDWDDDKYYSTSLKTRLTISKDTSKNQVVLTMTNMDPVDTATYYCARMALRHAFDAWGQGTMVTVSS VL: QSVLTQPPSVSGAPGQRVTISCTGSSSNIGAGYDVHWYQQLPGTAPKLLIYVNSNRPSGVPDRFSGSKSGTSASLAITGLQAEDEADYYCQSYDSSLSGWVFGGGTKLTVLG"
unitlabel = "µg/mL"
reportedresult = 1.5


Input 2B2 Hz (antibody, V domains shown, also called humanized 2B2) VH: QVQLVQSGAEVKKPGASVKVSCKASGYTFTNYGINWVRQAPGQRLEWMGYIYIGNDYTEYNERFKGRVTITSDTSASTAYMELSSLRSEDTAVYYCARLYYGSSLYSYAMDYWGQGTTVTVSS VL: DIVMTQSPLSLPVTPGEPASISCRSSKSLLHSSGNTYLYWFLQKPGQSPQLLISRMSNLASGVPDRFSGSGSGTDFTLKISRVEAEDVGVYYCMQHLEYPYTFGGGTKVEIKR . Output EC50: 0.27
